These measurements were taken from PubChem BioAssay AID1159580.

Measured normalized growth of individual entries
# Measurement description: chemical genetic growth profiling, strain panel (AID 1159580);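 also: tested at 20 µM; growth read once vehicle control cultures reached saturation at 30 °C; 1 = growth at the plate median or of vehicle wells; lower values mean less growth of the strain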
# Condition notes: S. cerevisiae deletion strains, growth OD, locus YPR119W, strain clb2, active compounds read low
Hit rate of the full screen: of about 5,500 compounds, about 2,000 (36%) were called active. Another 18% or so got no clear call; they are omitted. The list shows a part of the results.
Format: numeric value only, no unit, no commentary.

Answered cases to consult:
| Molecule | normalized growth |
| --- | --- |
| CN1C(=O)CC[C@H]1c1cccnc1 | 1 |
| O=C1NS(=O)(=O)c2ccccc21 | 0.982 |
| CNC(=O)Oc1ccccc1OC(C)C | 0.994 |
| CC(C)N1C(=O)c2ccccc2NS1(=O)=O | 0.99 |
| CC(=O)NS(=O)(=O)c1ccc(N)cc1 | 0.995 |

Sample O=C(c1ccccc1)c1ccc2n1CCC2C(=O)O (configuration not stated) — what was its normalized growth? 0.961

Query: normalized growth; subject: CC(C)c1cc2c(c(O)c1O)[C@@]1(C(=O)O)CCCC(C)(C)C1CC2 (some centres not stated) 1.03
